Recorded values, source paper PMC8315922.

- measured.target: CSR3 (Sweet potato chlorotic stunt virus, UniProt Q8JJW8)
- protocol.details: Binding affinity assay using MST
- experimental.context: MST response amplitude; Table S4
In this section, each of the compounds is paired with its reported Response Amplitude.
Number only, no unit.

What does the data say about its Response Amplitude? Entry: O=C1c2c(O)ccc(O)c2C(=O)c2c(NCCNCCO)ccc(NCCNCCO)c21 [FIMM000490]
0

What does the data say about its Response Amplitude? Entry: O=S(=O)(O)c1cccc2cc(O)ccc12 [FIMM072577]
0

What does the data say about its Response Amplitude? Entry: Cc1ccc(C2Nc3ccc(C(=O)O)cc3C3C=CCC32)cc1 (centres unmarked) [FIMM031755]
0

* * *

- System: SPFMV
- protocol.details: Virus accumulation (RT-qPCR of coat protein RNA) in coinfected sweetpotato plants grown in culture medium: SPFMV
- Type: in vivo, Sweet potato feathery mottle virus
- experimental.context: plants in culture medium, 50 μM
observable: SPFMV accumulation reduced

Below, each entry is followed by its recorded SPFMV accumulation reduced result.
{"compound": "O=C(O)c1ccc2c(c1)C1C=CCC1C(c1ccc(F)cc1)N2 (centres unmarked)", "observable": "SPFMV accumulation reduced", "measured.result": "~4 fold"}
{"compound": "CN1CCc2cccc3c2[C@H]1Cc1ccc(O)c(O)c1-3 [FIMM000096, reference compound]", "observable": "SPFMV accumulation reduced", "measured.result": "~2 fold"}
{"compound": "O=C(O)c1ccc2c(c1)C1C=CCC1C(c1ccccc1)N2 (centres unmarked)", "observable": "SPFMV accumulation reduced", "measured.result": "~4 fold"}
{"compound": "O=C(O)c1ccc(C2Nc3c(Br)cccc3C3C=CCC32)cc1 (centres unmarked)", "observable": "SPFMV accumulation reduced", "measured.result": "~4 fold"}

Proceeding to the next compound to report its SPFMV accumulation reduced.
What does the data say about its SPFMV accumulation reduced? Entry: Cc1ccc(C2Nc3ccc(C(=O)O)cc3C3C=CCC32)cc1 (centres unmarked)
~2 fold

* * *

In this section, each of the compounds is paired with its reported DSS.
- measured.target: UniProtKB Q8JJW8
- protocol.details: Kinetic-based FRET dose-response assay (IC50, DSS)
- Type: biochemical
- experimental.context: kinetic-based HTS, Fig 5A summary
Number only, no unit.

Below, each entry is followed by its recorded DSS result.
{"compound": "O=C(O)c1ccc2c(c1)C1C=CCC1C(c1ccc(F)cc1)N2 (centres unmarked)", "measured.target": "UniProtKB Q8JJW8", "measured.result": 12.4}
{"compound": "CN1CCc2cccc3c2[C@H]1Cc1ccc(O)c(O)c1-3 [FIMM000096, reference compound]", "measured.target": "UniProtKB Q8JJW8", "measured.result": 12.7}
{"compound": "Cc1ccc(C2Nc3ccc(C(=O)O)cc3C3C=CCC32)cc1 (centres unmarked)", "measured.target": "UniProtKB Q8JJW8", "measured.result": 15.9}

What does the data say about its DSS? Entry: O=C(O)c1ccc2c(c1)C1C=CCC1C(c1ccccc1)N2 (centres unmarked)
12.5

What does the data say about its DSS? Entry: O=C(O)c1ccc(C2Nc3c(Br)cccc3C3C=CCC32)cc1 (centres unmarked)
13.8

* * *

- measured.target: CSR3 (Sweet potato chlorotic stunt virus, UniProt Q8JJW8)
- Sequence (Q8JJW8 1-228): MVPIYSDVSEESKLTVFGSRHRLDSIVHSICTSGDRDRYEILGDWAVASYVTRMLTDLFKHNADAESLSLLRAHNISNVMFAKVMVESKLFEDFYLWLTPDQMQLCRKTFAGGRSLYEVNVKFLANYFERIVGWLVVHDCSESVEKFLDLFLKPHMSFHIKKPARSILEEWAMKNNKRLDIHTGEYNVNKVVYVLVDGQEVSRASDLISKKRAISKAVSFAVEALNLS
- protocol.details: Binding affinity assay using MST
- experimental.context: MST binding call; Table S4
observable: Binding (Yes/No)

Below, each entry is followed by its recorded Binding (Yes/No) result.
{"molecule": "Cc1ccc(C)c(C(=O)CSc2nnc[nH]2)c1", "Binding (Yes/No)": "No"}
{"molecule": "CCn1c(S)nnc1CCNC(=O)c1cccs1", "Binding (Yes/No)": "Yes"}
{"molecule": "CN1CCc2cccc3c2[C@H]1Cc1ccc(O)c(O)c1-3 [FIMM000096, reference compound]", "Binding (Yes/No)": "Yes"}
{"molecule": "O=C(O)c1ccc2c(c1)C1C=CCC1C(c1ccccc1)N2 (centres unmarked)", "Binding (Yes/No)": "No"}

What does the data say about its Binding (Yes/No)? Entry: CC(C)(C)C1CCc2c(sc(NC(=O)C3CC=CCC3C(=O)O)c2C(N)=O)C1 (centres unmarked)
No

* * *

- measured.target: CSR3 (RNase III of SPCSV) (Sweet potato chlorotic stunt virus, UniProt Q8JJW8)
- protocol.details: Kinetic-based FRET dose-response assay (IC50, DSS)
- Format: biochemical
- experimental.context: drug sensitivity score, repeat Comm 1
observable: DSS Comm 1
Number only, no unit.

What does the data say about its DSS Comm 1? Entry: CC(C)(C)C1CCc2c(sc(NC(=O)C3CC=CCC3C(=O)O)c2C(N)=O)C1 (centres unmarked)
2.4

What does the data say about its DSS Comm 1? Entry: O=S(=O)(O)c1cccc2cc(O)ccc12
20.7

* * *

- measured.target: CSR3 (Sweet potato chlorotic stunt virus, UniProt Q8JJW8)
- protocol.details: Binding affinity assay using MST
- experimental.context: MST binding affinity to CSR3; Table S4
observable: Kd (nM)
Dear colleague, please return just the value in nM, with no unit written.

What does the data say about its Kd? Entry: CN1CCc2cccc3c2[C@H]1Cc1ccc(O)c(O)c1-3 [FIMM000096, reference compound]
690

* * *

- measured.target: CSR3 (RNase III of SPCSV) (Sweet potato chlorotic stunt virus)
- protocol.details: Kinetic-based FRET dose-response assay (IC50, DSS)
- Type: biochemical
- experimental.context: read-out: IC50 Comm 1; repeat Comm 1 (commercial compounds), 1.25 nM to 50 μM; unit inferred, numbers match nM
observable: IC50
Write the numeric value and append its unit.

Below, each entry is followed by its recorded IC50 result.
{"compound": "Cc1ccc(C2Nc3ccc(C(=O)O)cc3C3C=CCC32)cc1 (centres unmarked)", "observable": "IC50", "measured.result": "7380 nM"}
{"compound": "CN1CCc2cccc3c2[C@H]1Cc1ccc(O)c(O)c1-3 [FIMM000096, reference compound]", "observable": "IC50", "measured.result": "2950 nM"}
{"compound": "O=C(O)c1ccc2c(c1)C1C=CCC1C(c1ccccc1)N2 (centres unmarked)", "observable": "IC50", "measured.result": "2880 nM"}
{"compound": "O=C(O)c1ccc2c(c1)C1C=CCC1C(c1ccc(F)cc1)N2 (centres unmarked)", "observable": "IC50", "measured.result": "3610 nM"}

Proceeding to the next compound to report its IC50.
What does the data say about its IC50? Entry: O=C(O)c1ccc(C2Nc3c(Br)cccc3C3C=CCC32)cc1 (centres unmarked)
12000 nM

* * *

In this section, each of the compounds is paired with its reported Response Amplitude.
- measured.target: CSR3 (Sweet potato chlorotic stunt virus, UniProt Q8JJW8)
- protocol.details: Binding affinity assay using MST
- experimental.context: MST response amplitude; Table S4
Number only, no unit.

{"compound": "COc1cc(C=C2C(=O)NC(=S)NC2=O)ccc1OCc1ccccc1[N+](=O)[O-] [FIMM101864]", "Response Amplitude": 0}
{"compound": "CC(C)(C)C1CCc2c(sc(NC(=O)C3CC=CCC3C(=O)O)c2C(N)=O)C1 (centres unmarked) [FIMM104970]", "Response Amplitude": 2.23}
{"compound": "O=C(O)c1ccc2c(c1)C1C=CCC1C(c1ccc(F)cc1)N2 (centres unmarked) [FIMM051696]", "Response Amplitude": 0.517}
{"compound": "Cc1ccc(C)c(C(=O)CSc2nnc[nH]2)c1 [FIMM027745]", "Response Amplitude": 0}
{"compound": "O=C(O)c1ccc2c(c1)C1C=CCC1C(c1ccccc1)N2 (centres unmarked) [FIMM005536]", "Response Amplitude": 0}

What does the data say about its Response Amplitude? Entry: CN1CCc2cccc3c2[C@H]1Cc1ccc(O)c(O)c1-3 [FIMM000096, reference compound]
11808

What does the data say about its Response Amplitude? Entry: O=C(O)c1ccc(C2Nc3c(Br)cccc3C3C=CCC32)cc1 (centres unmarked) [FIMM022230]
68

What does the data say about its Response Amplitude? Entry: CCn1c(S)nnc1CCNC(=O)c1cccs1 [FIMM099662]
21

* * *

- measured.target: CSR3 (RNase III of SPCSV) (Sweet potato chlorotic stunt virus, UniProt Q8JJW8)
- protocol.details: Kinetic-based FRET dose-response assay (IC50, DSS)
- Format: biochemical
- experimental.context: drug sensitivity score, repeat Comm 1
Please enter Met where DSS Comm 1 is greater than or equal to 8, and Not met where it is lower.

Answer whether DSS Comm 1 of O=C(O)c1ccc2c(c1)C1C=CCC1C(c1ccc(F)cc1)N2 (stereo not drawn) is greater than or equal to 8.
Met
